test: Inhibition of purified beta-lactamase CTX-M-14 (unknown origin) using nitrocefin as substrate preincubated for 10 mins followed by substrate addition
pKi: −log10 of the molar value.
testReadout: pKi

Example compounds with recorded pKi:
C=CCON(C(=O)c1cc([N+](=O)[O-])cc(C(F)(F)F)c1)C1CC(=O)N1 (racemic)
< 3.80
C[C@@H](O)[C@H]1C(=O)N[C@@H]1N(OCc1ccccc1)C(=O)c1ccccc1
< 3.80

Lab book: pKi of C=CCON(C(=O)c1ccc([N+](=O)[O-])cc1)C1CC(=O)N1 (racemic) noted as < 3.80
